Kindly state Purity % for each of the entries shown.
Assay: Stability under influencing factors (high temperature, high humidity, open, 30 days)
Details: 40° C., 5 days
Give just the numeric value; % need not be written.

Given the compound CC(C)(C#Cc1nc(C(Cc2cc(F)cc(F)c2)NC(=O)Cn2nc(C(F)(F)F)c3c2C(F)(F)C2CC32)c(-c2ccc(Cl)c3c([N-]S(C)(=O)=O)nn(CC(F)(F)F)c23)c2c1CCC2)S(C)(=O)=O.[Na+] (stereo not shown) [Crystal form III of the sodium salt] , what is its reported Purity %?
97.98

Given the compound CC(C)(C#Cc1nc(C(Cc2cc(F)cc(F)c2)NC(=O)Cn2nc(C(F)(F)F)c3c2C(F)(F)C2CC32)c(-c2ccc(Cl)c3c([N-]S(C)(=O)=O)nn(CC(F)(F)F)c23)c2c1CCC2)S(C)(=O)=O.C[N+](C)(C)CCO (stereo not shown) [Crystal form B of the choline salt] , what is its reported Purity %?
98.34

Given the compound CC(C)(C#Cc1nc(C(Cc2cc(F)cc(F)c2)NC(=O)Cn2nc(C(F)(F)F)c3c2C(F)(F)C2CC32)c(-c2ccc(Cl)c3c(NS(C)(=O)=O)nn(CC(F)(F)F)c23)c2c1CCC2)S(C)(=O)=O.O=S(=O)(O)O (stereo not shown) [Crystal form A of hydrosulfate] , what is its reported Purity %?
99.06

Given the compound CC(C)(C#Cc1nc(C(Cc2cc(F)cc(F)c2)NC(=O)Cn2nc(C(F)(F)F)c3c2C(F)(F)C2CC32)c(-c2ccc(Cl)c3c([N-]S(C)(=O)=O)nn(CC(F)(F)F)c23)c2c1CCC2)S(C)(=O)=O.[K+] (stereo not shown) [Crystal form a of the potassium salt] , what is its reported Purity %?
97.97
